- MEASUREMENT_TARGET: Estrogen receptor (Rattus norvegicus) (UniProt P06211+Q62986)
MEASUREMENT_KIND: Estrogenic potency

INSERT INTO assay_data (compound, value_comparator, recorded_measurement) VALUES
  ('CC[C@H]1CC[C@H]2[C@@H]3CCc4cc(O)ccc4[C@H]3[C@@H](O)C[C@]12C', '=', 0.03),
  ('CC[C@H]1CC[C@H]2[C@@H]3CCc4cc(O)ccc4[C@H]3[C@@H](OC)C[C@]12C', '=', 37),
  ('CC12CCC3c4ccc(O)cc4CCC3C1C=CC2C#N (stereo not drawn)', '<', 0.1),
  ('CC[C@H]1CC[C@H]2[C@@H]3C(C)Cc4cc(O)ccc4[C@H]3CC[C@]12C (stereo partly drawn)', '=', 15),
  ('C=C1CC[C@H]2[C@@H]3CCc4cc(O)ccc4[C@H]3[C@H](O)C[C@]12C', '=', 0.02),
  ('C/C=C1/CC[C@H]2[C@@H]3CCc4cc(O)ccc4[C@H]3[C@H](O)C[C@]12C', '=', 0.04),
  ('C[C@H]1CC[C@H]2[C@@H]3CCc4cc(O)ccc4[C@H]3CC[C@]12C', '=', 0.3),
  ('C=C1CC[C@H]2[C@@H]3[C@H](O)Cc4cc(O)ccc4[C@H]3CC[C@]12C', '=', 0.1);

All figures here come from ChEMBL document CHEMBL1124539.
